Hey, just so you know, these numbers are from patent US20170189529A1.

Assign Kd to each entry below.
# SYSTEM_NAME: hemagglutinin (HA) of influenza B virus B/Malaysia (Victoria lineage) (influenza B virus B/Malaysia/04 (Victoria clade))
# TEST_METHOD_NOTES: ForteBio Octet; antigen on the sensor, varying antibody concentrations
Form entry: value (nM) — number only.

Prompt: # input binder: TRL784 (antibody, V domains shown) VH: QVQLVQSGPELKKPGSSVKLSCMATGGTFINYAFSWVRQAPGQGLEWLGGIIPVYGTSNHVEKLQGRVTITADASTNTAYMELSGLRFDDTAVYFCAASTATSGTYYAMRPFDFWGQGTLVSVSS VL: DIELTQDPSVSVAPGQTARIPCVRFNMGPTSVHWYQQKPGQAPVLVVYDDSDRPSGIPERFSGSNSGDSATLTISRVEAGDEADYYCQVWDMSSDRRVFGGGTTLTVLG ; wanted: its Kd
Response: 7

Prompt: # input binder: TRL823 (antibody, V domains shown) VH: QVQLVESGGGVVQPGGSLRLSCAASGFNFDEYVMYWVRQSPGKGLEWVSLIGADGRGTYNSDSVKGRFTISRDNRKNSLYLQMNSLRSDDTALYYCAKVERSFYDGSGYGDALEIWGQGTMVTVSS VL: DIVMTQSPSSLSASVGDRVSITCRASQTITRFLNWYQQKPGKGPKLLIYAASTVHRGVPSRFSGSGSGTDFTLTISSLQPEDFATYYCQQSYSAPFTFGPGTTVDIRR ; wanted: its Kd
Response: 0.3

Prompt: # input binder: TRL837 (antibody, V domains shown) VH: QVQLVQSGAEVKKPGSSVTVSCKTSGHTFISYAISWLRQAPGQGLEWMGGIVPIFGTVNYTQKFQGRLTITADESTSTAYMDLSRLTFEDTAIYFCAREAGYHSSFSGVYFDYWGQGTLLTVSS VL: DIVMTQSPGTLSLSPGERATLYCRASQSVRSGYLAWYQHKPGQAPLLLFYDASGRATGIPDRFSGSGSGTDFTLTISRLEPEDFAVYYCLQYGSSPRTFGQGTKVEIKR ; wanted: its Kd
Response: 1

Prompt: # input binder: TRL833 (antibody, V domains shown) VH: QVQLLESGPGLVKPSQTLLLTCTVSGASISTGGNYWSWIRQHPGKDLEWIGYIFYSGTTKYNPSVDNPSLKSRVTMSVDTSENQFSLKLSSVTAADTAVYFCARGSPNSGYDWGPHFDYWGQGTLVTVSS VL: DIELTQSPSVSVSPGQTASITCSGDKLGDKFVCWYQQKAGQSPIVVIYQDDKRPSGIPERFSGSNSGNTATLTISGTQAMDEADYFCQAWDSTTVVFGGGTKLTVLG ; wanted: its Kd
Response: 0.2

Prompt: # input binder: TRL835 (antibody, V domains shown) VH: QVQLVQSGAEVRKPGESLRISCRGSGYNFPKYWIGWVRQMPGKGLEWMGMIYPGDSDVRYNPSFQGQVTISADESINTAYLQWSSLRTSDTARYYCARHLGQQLVSNTYYYYGMDVWGQGTTVTVSS VL: DIVLTQSPLSLPVTPGEPASISCRSSQSLLDSNGYNYLDWYLQKPGQSPQLLIYLASYRAPGVPDRFSGSGSGTDFTLKISRVEAEDVGLYYCMQALQTPPMYTFGQGTKLEIKR ; wanted: its Kd
Response: 2.3
